# Test System: Peptidyl-prolyl cis-trans isomerase FKBP1A (Homo sapiens)
# Sequence (P62942 whole entry): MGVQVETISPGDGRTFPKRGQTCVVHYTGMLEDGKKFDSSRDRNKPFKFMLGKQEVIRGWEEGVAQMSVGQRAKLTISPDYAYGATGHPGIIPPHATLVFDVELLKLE
# Test Method Notes: Ability to bind the major cystolic receptor FK506 binding protein 12 by using competitive binding assay
Property Name: EC50 (nM)

Structure String | Property Name | Endpoint Value
CC[C@@H]1/C=C(\C)C[C@H](C)C[C@H](OC)[C@H]2O[C@@](O)(C(=O)C(=O)N3CCCC[C@H]3C(=O)O[C@H](/C(C)=C/[C@@H]3CC[C@@H](O)[C@H](O)C3)[C@H](C)[C@@H](O)CC1=O)[C@@H](C)C[C@@H]2OC | EC50 | 5

[A] CC[C@@H]1/C=C(\C)C[C@H](C)C[C@H](OC)[C@H]2OC(O)(C(=O)C(=O)N3CCCC[C@H]3C(=O)O[C@H](/C(C)=C/[C@@H]3CC[C@@H](O)[C@H](OCc4ccco4)C3)[C@H](C)[C@@H](O)CC1=O)[C@@H](C)C[C@@H]2OC
[B] CC[C@@H]1/C=C(\C)C[C@H](C)C[C@H](OC)[C@H]2OC(O)(C(=O)C(=O)N3CCCC[C@H]3C(=O)O[C@H](/C(C)=C/[C@@H]3CC[C@@H](OCc4cccs4)[C@H](O)C3)[C@H](C)[C@@H](O)CC1=O)[C@@H](C)C[C@@H]2OC
[C] C=CCO[C@@H]1C[C@H](/C=C(\C)[C@H]2OC(=O)[C@@H]3CCCCN3C(=O)C(=O)C3(O)O[C@H]([C@@H](OC)C[C@@H](C)C/C(C)=C/[C@@H](CC)C(=O)C[C@H](O)[C@H]2C)[C@@H](OC)C[C@@H]3C)CC[C@H]1O
Query block: Order the records by EC50, with each subsequent value no larger than the one before. Present the labels in the sequence the task asks for.
Result block: B, A, C
(B: 11.8 nM, A: 4.6 nM, C: 2.7 nM)
